- System: vraSR transcription (Pvra::lux)
- Format: cell-based, Staphylococcus aureus
- Setup Conditions: compound 10 μM + oxacillin 2 μg/mL; ratio of LU to oxacillin alone; four runs
Counter-ions that a name gives are not always drawn.
Reported Metric: RL avg (relative luminescence)
One number for each entry.

CC1(C)S[C@@H]2[C@H](NC(=O)[C@H](NC(=O)N3CCNC3=O)c3ccccc3)C(=O)N2[C@H]1C(=O)O [Azlocillin sodium salt] : 0.78

// for each molecule in input: emit RL avg (relative luminescence)
1. N=C(N)NC(=O)Cc1c(Cl)cccc1Cl [Guanfacine hydrochloride]
2. CC(C(=O)O)c1ccc(N2Cc3ccccc3C2=O)cc1 (stereo not shown)

output:
[0.79, 0.87]

input: Request the reported RL avg (relative luminescence) associated with C[N+]12CCC(CC1)C(OC(=O)C(O)(c1ccccc1)c1ccccc1)C2 (stereo not shown) [Clidinium bromide]
output: 0.95

###

- Tested on: vraSR transcription (Pvra::lux)
- Assay type: cell-based, Staphylococcus aureus
- Setup Conditions: compound 10 μM + oxacillin 2 μg/mL; ratio of LU to oxacillin alone; four runs
Counter-ions that a name gives are not always drawn.
Decision: RL avg (relative luminescence) >= 0.9 yields t, all other cases yield f.

N[C@@H](Cc1cc(I)c(Oc2ccc(O)c(I)c2)c(I)c1)C(=O)O : f
CCN(CC)CCc1nc(-c2ccccc2)no1.O=C(O)CC(O)(CC(=O)O)C(=O)O [Oxalamine citrate salt] : t
CC1CS(=O)(=O)CCN1/N=C/c1ccc([N+](=O)[O-])o1 (centres unmarked) : t
C[n+]1cc2c3c(ccc2c2ccc4cc5c(cc4c21)OCO5)OCO3 : f
C[C@@H]1[C@H](O)[C@@H](C)/C=C/C=C/CC/C=C/C=C/C=C/C=C/C(O[C@H]2O[C@H](C)[C@@H](O)[C@H](N)[C@@H]2O)CC2O[C@](O)(CC(O)C(O)CCC(O)CC(O)CC(O)CC(=O)O[C@H]1C)CC(O)C2C(=O)O (some centres unmarked) : t
CO[C@H]1C[C@H](O[C@H]2[C@H](C)[C@@H](O[C@@H]3O[C@H](C)C[C@H](N(C)C)[C@H]3O)[C@@H](C)C[C@@]3(CO3)C(=O)[C@H](C)[C@@H](O)[C@@H](C)[C@@H](C)OC(=O)[C@@H]2C)O[C@@H](C)[C@@H]1O [Oleandomycin phosphate] : f

input: Reported RL avg (relative luminescence) reaches at least 0.9 for CCN(CC)CCOc1ccc(C(=C(Cl)c2ccccc2)c2ccccc2)cc1 (racemic) [Clomiphene citrate (Z,E)] ?
output: f

###

- Tested on: vraR transcription
- Assay: Tertiary screen: qRT-PCR of vraR in strain 923
- Assay type: cell-based, Staphylococcus aureus
- Setup Conditions: qRT-PCR of vraR, compound 10 μM + oxacillin 2 μg/mL
Reported Metric: Effect on vraSR Transcription: With oxacillin

CO[C@H]1C[C@H](O[C@H]2[C@H](C)[C@@H](O[C@@H]3O[C@H](C)C[C@H](N(C)C)[C@H]3O)[C@@H](C)C[C@@]3(CO3)C(=O)[C@H](C)[C@@H](O)[C@@H](C)[C@@H](C)OC(=O)[C@@H]2C)O[C@@H](C)[C@@H]1O [Oleandomycin phosphate] : repress
CCn1cc(C(=O)O)c(=O)c2cc(F)c(N3CCNCC3)cc21 : repress

###

Kindly supply the reported RL avg (relative luminescence) values for the records listed here.
- Tested on: vraSR transcription (Pvra::lux)
- Assay type: cell-based, Staphylococcus aureus
- Setup Conditions: compound 10 μM + oxacillin 2 μg/mL; ratio of LU to oxacillin alone; four runs
Counter-ions that a name gives are not always drawn.
One number for each entry.

Cc1cc2c(C(C)C)c(O)c(O)c(C=O)c2c(O)c1-c1c(C)cc2c(C(C)C)c(O)c(O)c(C=O)c2c1O [Gossypol] : 0.11
O=C1NCN(c2ccccc2)C12CCN(CCCC(c1ccc(F)cc1)c1ccc(F)cc1)CC2 [Fluspirilen] : 0.28
NS(=O)(=O)c1cc2c(cc1Cl)NC(C(Cl)Cl)NS2(=O)=O (stereo not shown) [Trichlormethiazide] : 1.06
CN(C)CCOC(=O)COc1ccc(Cl)cc1 [Meclofenoxate hydrochloride] : 1.08
CCN1CCN(C(=O)N[C@@H](C(=O)N[C@@H]2C(=O)N3C(C(=O)O)=C(CSc4nnnn4C)CS[C@H]23)c2ccc(O)cc2)C(=O)C1=O [Cefoperazone dihydrate] : 0.77

Answer for every listed entry: what is its RL avg (relative luminescence)? The entries follow.
1. O=c1[nH]c2ccccc2n1CCCN1CCC(n2c(=O)[nH]c3cc(Cl)ccc32)CC1 [Domperidone]
2. CN(C)CCn1nnnc1SCC1=C(C(=O)O)N2C(=O)[C@@H](NC(=O)Cc3csc(N)n3)[C@H]2SC1 [Cefotiam hydrochloride]
3. C=C1CC[C@H](O)C/C1=C/C=C1\CCC[C@]2(C)[C@@H]([C@H](C)/C=C/[C@H](C)C(C)C)CC[C@@H]12 [Calciferol]
4. CN[C@@H]1[C@H](O)[C@H](NC)[C@H]2O[C@@]3(O)C(=O)C[C@@H](C)O[C@H]3O[C@@H]2[C@H]1O [Spectinomycin dihydrochloride]
5. C=C(C)[C@@H]1CC[C@]2(C(=O)O)CC[C@]3(C)[C@H](CC[C@@H]4[C@@]5(C)CC[C@H](O)C(C)(C)[C@@H]5CC[C@]43C)[C@@H]12 [Betulinic acid]
6. CC/C(=C(/CC)c1ccc(O)cc1)c1ccc(O)cc1 [Diethylstilbestrol]
7. CCn1nc(C(=O)O)c(=O)c2cc3c(cc21)OCO3 [Cinoxacin]
8. O=C(CCCN1CC=C(n2c(=O)[nH]c3ccccc32)CC1)c1ccc(F)cc1 [Droperidol]

output:
1: 0.85; 2: 0.64; 3: 0.88; 4: 0.77; 5: 0.83; 6: 0.26; 7: 1.03; 8: 0.91

I'm hoping you can list RL avg (relative luminescence) for every molecule here, please.
1. CCCCN(CCCC)CCCOC(=O)c1ccc(N)cc1 [Butacaine]
2. NS(=O)(=O)c1cc2c(cc1Cl)N=C(CSCc1ccccc1)NS2(=O)=O [Benzthiazide]
3. CCCC(=O)Nc1ncnc2c1ncn2[C@@H]1O[C@@H]2COP(=O)(O)O[C@H]2[C@H]1OC(=O)CCC [Bucladesine sodium salt]
4. C#C[C@]1(O)CC[C@H]2[C@@H]3CCc4cc(OC)ccc4[C@H]3CC[C@@]21C [Ethynylestradiol 3-methyl ether]
5. CCC(=O)OCC(=O)[C@@]1(OC(=O)CC)[C@@H](C)C[C@H]2[C@@H]3CCC4=CC(=O)C=C[C@]4(C)[C@@]3(Cl)[C@@H](O)C[C@@]21C [Beclomethasone dipropionate]
6. CCCCc1oc2ccccc2c1C(=O)c1cc(I)c(OCCN(CC)CC)c(I)c1 [Amiodarone hydrochloride]
7. C[C@H]1[C@H](C)CC[C@]2(C(=O)O)CC[C@]3(C)C(=CC[C@@H]4[C@@]5(C)CC[C@H](O)C(C)(C)[C@@H]5CC[C@]43C)[C@H]12 [Ursolic acid]
8. CC1=CC(=O)c2ccccc2C1=O [Menadione, 2-Methylnaphthalene-1,4-dione]

output:
1. 0.98
2. 0.95
3. 0.94
4. 0.97
5. 0.96
6. 0.68
7. 0.71
8. 0.47

Consider the following items and state reported RL avg (relative luminescence) for each.
1. C(=C\c1ccccc1)/CN1CCN(C(c2ccccc2)c2ccccc2)CC1 [Cinnarizine]
2. O=C1OC(CN2CCOCC2)CN1/N=C/c1ccc([N+](=O)[O-])o1 (stereo not shown) [Furaltadone hydrochloride]
3. O=C(c1ccc(OCCN2CCCCC2)cc1)c1c(-c2ccc(O)cc2)sc2cc(O)ccc12 [Raloxifene hydrochloride]
4. O=C1c2c(O)ccc(O)c2C(=O)c2c(NCCNCCO)ccc(NCCNCCO)c21 [Mitoxantrone dihydrochloride]
5. C#C[C@]1(O)CC[C@H]2[C@@H]3CCC4=CCCC[C@@H]4[C@H]3CC[C@@]21C [Lynestrenol]

output:
1: 0.94; 2: 1.01; 3: 0.85; 4: 0.83; 5: 0.26

Look up RL avg (relative luminescence) for the entries below, preserving their order.
1. CC(=O)OCC1=C(C(=O)O)N2C(=O)[C@@H](NC(=O)Cc3cccs3)[C@H]2SC1 [Cephalothin sodium salt]
2. COc1cccc2c1C(=O)c1c(O)c3c(c(O)c1C2=O)C[C@@](O)(C(=O)CO)C[C@@H]3O[C@H]1C[C@H](N)[C@H](O)[C@H](C)O1 [Doxorubicin hydrochloride]

output:
1: 0.36; 2: 0.83

###

- Tested on: vraSR transcription (Pvra::lux)
- Format: cell-based, Staphylococcus aureus
- Setup Conditions: compound 10 μM + oxacillin 2 μg/mL; ratio of LU to oxacillin alone; four runs
Where a name gives a salt, the structure may show the parent alone.
Reported Metric: RL avg (relative luminescence)

COc1cccc2c1C(=O)c1c(O)c3c(c(O)c1C2=O)C[C@@](O)(C(C)=O)C[C@@H]3O[C@H]1C[C@H](N)[C@H](O)[C@H](C)O1 [Daunorubicin hydrochloride] : 1.00
CN(C)CCCN1c2ccccc2Sc2ccccc21 [Promazine hydrochloride] : 1.08
C[C@]12CC[C@H](O)C[C@H]1CC[C@@H]1[C@@H]2CC[C@]2(C)[C@@H](C3=CC(=O)OC3)CC[C@]12O : 0.97
COc1ccc(-c2cc(=O)c3c(O)cc(O)cc3o2)cc1 : 0.88
CCn1cc(C(=O)O)c(=O)c2cc(F)c(N3CCNCC3)cc21 : 0.33
Cc1ccnc(NS(=O)(=O)c2ccc(N)cc2)n1 : 1.01

Could you now consider this next compound?
input: Tell me the measured RL avg (relative luminescence) of CC(Oc1ccccc1)C(=O)N[C@@H]1C(=O)N2[C@@H]1SC(C)(C)[C@@H]2C(=O)O (stereo partly shown) [Phenethicillin potassium salt] , please.
output: 0.88
